- assay_target: purified human Factor XIa (Homo sapiens (Human), UniProt P03951)
- Sequence (P03951 388-625): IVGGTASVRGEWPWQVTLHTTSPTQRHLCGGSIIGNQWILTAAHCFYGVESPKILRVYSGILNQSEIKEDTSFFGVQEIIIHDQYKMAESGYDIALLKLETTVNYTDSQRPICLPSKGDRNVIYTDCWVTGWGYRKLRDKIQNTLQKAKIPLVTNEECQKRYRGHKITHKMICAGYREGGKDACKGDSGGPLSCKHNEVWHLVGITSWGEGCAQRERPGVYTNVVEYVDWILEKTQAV
- Sequence (P03951 19-387 partner): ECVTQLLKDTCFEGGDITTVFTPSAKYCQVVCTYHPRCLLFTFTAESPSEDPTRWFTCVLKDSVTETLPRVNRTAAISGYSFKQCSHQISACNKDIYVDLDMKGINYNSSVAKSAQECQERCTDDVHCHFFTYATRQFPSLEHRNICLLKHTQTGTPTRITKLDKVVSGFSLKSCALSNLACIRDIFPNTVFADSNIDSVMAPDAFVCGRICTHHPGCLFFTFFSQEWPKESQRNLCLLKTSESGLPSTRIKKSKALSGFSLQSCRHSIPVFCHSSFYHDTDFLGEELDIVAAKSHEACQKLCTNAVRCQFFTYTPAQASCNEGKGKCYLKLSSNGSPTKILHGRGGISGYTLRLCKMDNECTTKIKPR
- assay_procedure: Factor XIa enzyme inhibition assay (chromogenic substrate S-2366)
- test_conditions: read-out: Factor XIa Ki; measured at 25° C.
pKi: −log10 of the molar value. Counter-ions that a name gives are not always drawn.
pKi by entry:
observable: pKi

{"molecule": "CC1(O)CCN(c2cccc3c2CCN(C(=O)c2cnn(-c4cccc(Cl)c4F)c2)C3C(=O)Nc2ccc(C(=O)O)cc2)CC1 (stereo not drawn) [Example 68, TFA salt]", "result": "> 8.30"}
{"molecule": "CN(C)C1CCN(c2cccc3c2CCN(C(=O)c2cn(-c4cccc(Cl)c4F)nn2)C3C(=O)Nc2ccc(-c3cn[nH]c3)cc2)CC1 (stereo not drawn) [Example 102, bis-TFA salt]", "result": "> 8.30"}
{"molecule": "CN1CCC(=O)N(c2cccc3c2CCN(C(=O)c2cnn(-c4cccc(Cl)c4F)c2)C3C(=O)Nc2ccc(C(=O)O)cc2)CC1 (stereo not drawn) [Example 70, TFA salt]", "result": 7.53}
